System: primary mouse cortical neurons
Construct: primary cortical neurons, DIV 10
Measurement Protocol: cells
Design: Protection from NMDA-induced (30 uM, 10 min) neuronal death; Hoechst nuclear morphology by automated microscopy
Experimental Setup: Cortical neurone, 20 h, read-out: % inhibition, inhibition of NMDA-induced cell death (protection score), 30 min pre-treatment
Below, each of the compounds is paired with its reported inhibition at 10 µM value.
State the answer as a number, implicitly in %.

Previously resolved entries follow.
1) CCCCCCOC(=O)NC(=N)c1ccc(NCc2nc3cc(C(=O)N(CCC(=O)OCC)c4ccccn4)ccc3n2C)cc1
0.466
2) Nc1ccc(S(=O)(=O)Nc2ncccn2)cc1
17.4

Could you now look at the following compound, please?
Prompt: Using the record for O=c1oc2cc(O)ccc2s1 , report its inhibition at 10 µM.
Response: -0.329

Source: paper PMC7489219
